# maps each entry to its fold over background (A450)
target_or_test_system: T1, human TREM2 full length stalk region peptide (aa 129-172) (human, biotinylated (site not stated))
T1 construct: also called Human TREM2 peptide (aa 129-172); full-length TREM2 stalk peptide
T1 peptide: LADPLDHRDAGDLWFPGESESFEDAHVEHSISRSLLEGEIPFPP
assay_info: ELISA on biotinylated peptide captured by streptavidin; A450 normalised to isotype control
Report as a plain number; the unit fold is understood.

CL0020127 (antibody, V domains shown, also called Clone CL0020127) VH: EVQLQQSGPVLVKPGASVKMSCKASGYKFTDYYMNWVKQSHGKSLEWIGTINPYSGGISYNQKFKGKATLTVDKSSSTAYMELNSLTSEASAVYYCTRRNWDGRYAMDYWGQGTSVTVSS VL: DIVMTQSHKFMSTSVGDRVSITCKASQDVSTAVAWYQQKPGQSPKLLIYWASTRHTGVPDRFTGSGSGTDFTLTISNVQSEDLAEYFCQQYSSYPFTFGGGTKLEIK | 1.4
CL0020309 (antibody, V domains shown, also called Clone CL0020309) VH: QVQLKQSGPSLVQPSQSLSITCTVSGFSLTSYGVQWVRQSPGKGLEWLGVIWTGGTTDFNAAFKSRLSITKDNSKSQVFFKMNSLQADDSAIYYCAKIGFHSAVDYWGQGTSVTVSS VL: DVLMTQTPLSLPVSLGDQASISCRSSQNIVHSNGNTYLEWYLQKPGQSPKLLIYKVSNRFSGVPDRFSGSGSGTDFTLKINRVEAEDLGLYYCFQGSHIPFTFGSGTQLEIK | 11
CL0020164 (antibody, V domains shown, also called Clone CL0020164) VH: EVKLLESGGGLVQPGGSLRLSCAASGFTFTDFYMSWIRQPPGKAPEWLGVIRNKANGFTTEYNTSVKGRFTISRDYTQNILHLQTNTLRAEDTAIYYCARLTYGFDYWGQGVMVTVSS VL: DIVMTQGALPNPVPSGESASITCQSSKSLLHSNGKTYLNWYLQRPGQSPQFLIYWMSTRASGVSDRFSGSGSGTDFTLKISSVEAEDVGVYYCQQFLELPFTFGSGTKLEIK | 50
CL0020103 (antibody, V domains shown, also called Clone CL0020103) VH: EVQLQQSGPELVKPGASVKISCKTSGYTFTEYTMHWVKESHGKSLEWIGGINPNKGGSSYNQKFKGKATLTVDKSSSTAYMDLRRLTSEDSAVYYCARGGYEYYALDYWGQGTSVTVSS VL: DIVMSQSPSSLTVSVGERVTMSCKSSQSLLYSRNQKNYLAWYQQKPGQSPKLLIYWASTRESGVPDRFTGSGSGTDFSLTISSVKAEDLAVYYCQQYYSYPPTFGGGTKLEIK | 56

As a next step, examine the binder that follows.
Item under review: CL0020109 (antibody, V domains shown, also called Clone CL0020109) VH: EVQLQQSGPVLVKPGASLKMSCRASGYTFTDYYVHWVKQSHGKSLEWIGLINPYTGTTSYNQRFKGKATLTVDKSSSTAYMEVNSLTSEDSAVYYCARSRVYYGSSLFAFWGQGTLVTVSA VL: DIVMTQSPSSLSVSAGEKVTMSCKSSQSLLNSGNQKNYLAWYQQKPGQPPKLLIYGASTRESGVPDRFTGSGSGTDFTLTISSVQAEDLAVYYCQNDHSYPYTFGGGTKLEIK . Reported fold over background (A450)?
1.7
